experiment: Noncompartmental pharmacokinetic parameters (Cmax, Tmax, AUC, Racc) in QD and BID cohorts of Form B; type: in vivo, human; settings: human, plasma, oral, 100 mg, Compound III; 100 mg BID of Form B; Cohort 6; Day 29; read-out: Tmax (Median)
Recorded Metric: Tmax (h)
Just the number in h, nothing appended.

Problem: Dear colleague, I am looking for the recorded Tmax of the following compound: O=C1NCC2(CCCCC2)n2c1cc1cnc(Nc3ccc(N4CCNCC4)cn3)nc12 [Compound III]
Solution: 2

* * *

Experiment: Plasma concentration versus time of Compound I and metabolite Compound III in patients dosed QD or BID with Form B of Compound II plus fulvestrant
Assay type: in vivo, human
Details: human, plasma, oral, 650 mg, Cohort 5, 650 mg QD of Form B, Day 22; read-out: Trough Compound III Concentration, Min
Source text: Patients were enrolled into 1 of 2 parallel, independently operating, dose-escalation dosing cohorts with Form B of Compound II administered continuously either once daily (QD) or twice daily (BID) with food with fixed-dose fulvestrant (intramuscularly every 14 days for the first three injections and then every 28 days). Pre- or perimenopausal patients also received goserelin for the duration of study treatment. […]
Recorded Metric: concentration at 22 day (ng/mL)
Just the number in ng/mL, nothing appended.

Problem: Dear colleague, I am looking for the recorded concentration at 22 day of the following molecule: O=C1NCC2(CCCCC2)n2c1cc1cnc(Nc3ccc(N4CCNCC4)cn3)nc12
Solution: 2.34

* * *

test: Steady-state AUC0-24,ss, (AUC0-24,ss)/dose, half-life and time to steady state: Compound I versus palbociclib, ribociclib, abemaciclib; type: in vivo, human; conditions: human, in vivo; 125 mg QD; AUC0-24=(AUC0-10)*2.49655; read-out: Extrapolated AUC0-24,ss
Recorded Metric: AUC(0-t) (ng·h/mL)
Just the number in ng·h/mL, nothing appended.

Problem: Dear colleague, I am looking for the recorded AUC(0-t) of the following compound: CC(=O)c1c(C)c2cnc(Nc3ccc(N4CCNCC4)cn3)nc2n(C2CCCC2)c1=O [palbociclib]
Solution: 1810

* * *

assay: Plasma concentration versus time of Compound I and metabolite Compound III in patients dosed QD or BID with Form B of Compound II plus fulvestrant; format: in vivo, human; conditions: human, plasma, oral, 500 mg, 500 mg QD of Form B, Day 29, 10.0 h, Mean; read-out: Compound I Concentration
Recorded Metric: concentration at 10 h (ng/mL)
Just the number in ng/mL, nothing appended.

Problem: Dear colleague, I am looking for the recorded concentration at 10 h of the following compound: CC(C)N1CCN(c2ccc(Nc3ncc4cc5n(c4n3)C3(CCCCC3)CNC5=O)nc2)CC1
Solution: 26.7

* * *

test: Plasma concentration versus time of Compound I and metabolite Compound III in patients dosed QD or BID with Form B of Compound II plus fulvestrant; format: in vivo, human; details: human, plasma, oral, 500 mg, Cohort 4, 500 mg QD of Form B, Day 29, 4.0 h; read-out: Compound III Concentration, Mean
Recorded Metric: concentration at 4 h
Please state the value followed by its unit.

Problem: Dear colleague, I am looking for the recorded concentration at 4 h of the following compound: O=C1NCC2(CCCCC2)n2c1cc1cnc(Nc3ccc(N4CCNCC4)cn3)nc12
Solution: 5.77 ng/mL

* * *

experiment: Plasma concentration versus time of Compound I and metabolite Compound III in patients dosed QD or BID with Form B of Compound II plus fulvestrant; format: in vivo, human; details: human, plasma, oral, 650 mg, Cohort 5, 650 mg QD of Form B, Day 29, 0.0 h; read-out: Compound I Concentration, Median
Recorded Metric: concentration at 0 h (µg/mL)
Just the number in µg/mL, nothing appended.

Problem: Dear colleague, I am looking for the recorded concentration at 0 h of the following molecule: CC(C)N1CCN(c2ccc(Nc3ncc4cc5n(c4n3)C3(CCCCC3)CNC5=O)nc2)CC1
Solution: 0.0225

* * *

assay: Plasma concentration versus time of Compound I and metabolite Compound III in patients dosed QD or BID with Form B of Compound II plus fulvestrant; type: in vivo, human; conditions: human, plasma, oral, 650 mg, Cohort 5, 650 mg QD of Form B, Day 29, 2.0 h; read-out: Compound III Concentration, Min
Recorded Metric: concentration at 2 h

Problem: Dear colleague, I am looking for the recorded concentration at 2 h of the following compound: O=C1NCC2(CCCCC2)n2c1cc1cnc(Nc3ccc(N4CCNCC4)cn3)nc12 [Compound III]
Solution: 1.85 ng/mL

* * *

Assay: Noncompartmental pharmacokinetic parameters (Cmax, Tmax, AUC, Racc) in QD and BID cohorts of Form B
Assay type: in vivo, human
Conditions: human, plasma, oral, 200 mg, Compound I; 200 mg BID of Form B; Cohort 8; Day 29; read-out: AUClast (Median)
Protocol: Analysis of plasma concentration versus time data for calculation of standard pharmacokinetic (PK) parameters following oral administration was conducted using Phoenix WinNonlin version 6.3 using actual blood sampling times. […]
Recorded Metric: AUC(0-t) (ng·h/mL)
Just the number in ng·h/mL, nothing appended.

Problem: Dear colleague, I am looking for the recorded AUC(0-t) of the following molecule: CC(C)N1CCN(c2ccc(Nc3ncc4cc5n(c4n3)C3(CCCCC3)CNC5=O)nc2)CC1
Solution: 205

* * *

assay: Plasma concentration versus time of Compound I and metabolite Compound III in patients dosed QD or BID with Form B of Compound II plus fulvestrant; format: in vivo, human; conditions: human, plasma, oral, 400 mg, 400 mg QD of Form B, Day 1, 4.0 h, Mean; read-out: Compound I Concentration
Recorded Metric: concentration at 4 h (ng/mL)
Just the number in ng/mL, nothing appended.

Problem: Dear colleague, I am looking for the recorded concentration at 4 h of the following compound: CC(C)N1CCN(c2ccc(Nc3ncc4cc5n(c4n3)C3(CCCCC3)CNC5=O)nc2)CC1
Solution: 14

* * *

experiment: Plasma concentration versus time of Compound I and metabolite Compound III in patients dosed QD or BID with Form B of Compound II plus fulvestrant; assay type: in vivo, human; conditions: human, plasma, oral, 150 mg, Cohort 7, 150 mg BID of Form B, Day 22; read-out: Trough Compound I Concentration, Max
Recorded Metric: concentration at 22 day (ng/mL)
Just the number in ng/mL, nothing appended.

Problem: Dear colleague, I am looking for the recorded concentration at 22 day of the following molecule: CC(C)N1CCN(c2ccc(Nc3ncc4cc5n(c4n3)C3(CCCCC3)CNC5=O)nc2)CC1 [Compound I]
Solution: 30.5

* * *

assay: Plasma concentration versus time of Compound I and metabolite Compound III in patients dosed QD or BID with Form B of Compound II plus fulvestrant; format: in vivo, human; details: human, plasma, oral, 650 mg, 650 mg QD of Form B, Day 1, 2.0 h, Mean; read-out: Compound III Concentration
Recorded Metric: concentration at 2 h (ng/mL)
Just the number in ng/mL, nothing appended.

Problem: Dear colleague, I am looking for the recorded concentration at 2 h of the following compound: O=C1NCC2(CCCCC2)n2c1cc1cnc(Nc3ccc(N4CCNCC4)cn3)nc12 [Compound III]
Solution: 4.01

* * *

test: Noncompartmental pharmacokinetic parameters (Cmax, Tmax, AUC, Racc) in QD and BID cohorts of Form B; assay type: in vivo, human; details: human, plasma, oral, 150 mg, Compound I; 150 mg BID of Form B; Cohort 7; Day 29; read-out: Cmax (Median)
Recorded Metric: Cmax (ng/mL)
Just the number in ng/mL, nothing appended.

Problem: Dear colleague, I am looking for the recorded Cmax of the following molecule: CC(C)N1CCN(c2ccc(Nc3ncc4cc5n(c4n3)C3(CCCCC3)CNC5=O)nc2)CC1
Solution: 36.9

* * *

assay: Plasma concentration versus time of Compound I and metabolite Compound III in patients dosed QD or BID with Form B of Compound II plus fulvestrant; type: in vivo, human; conditions: human, plasma, oral, 150 mg, Cohort 7, 150 mg BID of Form B, Day 8; read-out: Trough Compound I Concentration, Min
Recorded Metric: concentration at 8 day (ng/mL)
Just the number in ng/mL, nothing appended.

Problem: Dear colleague, I am looking for the recorded concentration at 8 day of the following molecule: CC(C)N1CCN(c2ccc(Nc3ncc4cc5n(c4n3)C3(CCCCC3)CNC5=O)nc2)CC1 [Compound I]
Solution: 17.4

* * *

assay: Plasma concentration versus time of Compound I and metabolite Compound III in patients dosed QD or BID with Form B of Compound II plus fulvestrant; type: in vivo, human; details: human, plasma, oral, 200 mg, 200 mg QD of Form B, Day 1, 8.0 h, Median; read-out: Compound I Concentration
Recorded Metric: concentration at 8 h (ng/mL)
Just the number in ng/mL, nothing appended.

Problem: Dear colleague, I am looking for the recorded concentration at 8 h of the following compound: CC(C)N1CCN(c2ccc(Nc3ncc4cc5n(c4n3)C3(CCCCC3)CNC5=O)nc2)CC1
Solution: 12.2
